Data provenance is ChEMBL document CHEMBL4513216.

# test: Toxicity liver stage against HepG2, at 10uM
# Type: cell-based
# Design: test concentration 10 uM, cell line HepG2-A16-CD81EGFP
# assay conditions: human, HepG2-A16-CD81EGFP cells; read-out: INHIBITION
# cytotoxicity at 10 µM values compiled below
experimental endpoint: cytotoxicity at 10 µM

CCN1c2ccc(-c3cncn3CCCn3ccnc3C)cc2CC1C (stereo unspecified) = -1.25%
COc1ccc(Cl)cc1C(C(=O)O)N(C)Cc1ccon1 (stereo unspecified) = -5.92%
Cc1sc2nc(C(F)(F)F)nc(N3CCCN(C)CC3)c2c1C = -26.8%
CCOC(=O)C1CCN(CCCc2nnnn2-c2ccccc2)CC1 = 0.462%
COCC(=O)Nc1ccc(-c2noc([C@@H]3CCCN3C(C)C)n2)cn1 = 0.994%
Cc1ocnc1C(=O)N1CCN(Cc2ccccc2)[C@@H]2CS(=O)(=O)C[C@@H]21 = -1.26%
c1cncc(-c2nc3c(c(NCC4(c5ccncc5)CC4)n2)CCC3)c1 = 7.77%
Cc1ccc(CN2CCc3nnc(COCCN(C)C)n3CC2)o1 = 2.9%
CN(C)CCn1c2c(ccc1=O)CC(NC(=O)NC1CCCC1)CC2 (stereo unspecified) = -0.913%
Fc1cnc(N2CCC3(CC2)CN(Cc2ccccn2)CCO3)nc1 = 0.35%
COCC1CN(CCc2ccc(OC)c(OC)c2)Cc2c1cnn2C (stereo unspecified) = -105%

---

# test: Toxicity liver stage against HepG2, at 10uM
# Format: cell-based
# Parameters: test concentration 10 uM, cell line HepG2-A16-CD81EGFP
# assay conditions: human, HepG2-A16-CD81EGFP cells; read-out: INHIBITION
# cytotoxicity at 10 µM values compiled below
experimental endpoint: cytotoxicity at 10 µM (%)

O=C(c1ccc(Cl)cc1)N1CCC2(CC1)C(=O)Nc1ccccc12 = -145
Cn1c(=O)c2cc(C(=O)NCc3ccncc3)ccc2n(C)c1=O = -11.1
CC1CCC(O)(CSc2nnnn2C2CC2)CC1 (stereo not drawn) = -1.97
CSc1ccccc1C(=O)N(C)C1CCCN(CCc2ccccc2)C1 (stereo not drawn) = -8.52
O=C(Cn1nc(N2CCOCC2)ccc1=O)Nc1nccs1 = -1.47
CC(C)c1nn(C)c(Cl)c1CNCc1ccc(N(C)C)nc1 = -13.6
Cc1nc(S(=O)(=O)N2CCSCC2)cn1C = -9.09
Cc1noc(C2CCN(C(=O)CCNS(C)(=O)=O)CC2)n1 = -21
CCOCC(=O)N1CCC(C)(c2nccs2)CC1 = 7.64
O=C(c1ccc[nH]1)N1C[C@H](OCc2ccccn2)[C@H]2COC[C@H]21 = 0.238
CCCNS(=O)(=O)c1ccc2[nH]c(=O)cc(C)c2c1 = -3.37
CCN(CC)C(=O)[C@@H]1C[C@@H](NC(=O)c2cccc(N(C)C)c2)CN1C = 6.69
COCC(=O)N1C[C@H]2CNC[C@@]2(C(=O)NCc2nc(C)cc(C)n2)C1 = 14.7
c1ccc(OC2COC3(CCN(Cc4ccccn4)CC3)C2)cc1 (stereo not drawn) = -69.2
CCCn1cc(-c2ccnc(NC3CCc4ccccc43)n2)c(C)n1 (stereo not drawn) = 10.1
CNC(=O)c1ccc(CN(C)C(=O)Nc2nnc(C(C)C)s2)cc1 = -14
C[C@@H]1CN(C(=O)c2ccsc2)C[C@]12CCN(c1ccsc1)C2=O = 1.88
Cc1ccc(S(C)(=O)=O)cc1C(=O)NS(=O)(=O)c1cccs1 = 0.532
CCC[C@@H]1CN(Cc2cc(OC)c3c(c2)OCO3)C[C@H]1C(=O)O = -0.778
O=C(COc1ccc(Cl)cc1)N1CCN(c2cnccn2)CC1 = -20.4
Cc1nc(O)cc(C2CCCN(C(=O)CN(C)c3ccccc3)C2)n1 (stereo not drawn) = 12.8
O=C(CNc1cccc(CC(F)(F)F)c1)NCc1ccco1 = -46.3
CC(=O)N1CCCN(C(=O)NCCCc2cn[nH]c2C)CC1 = -9.67

---

# test: Toxicity liver stage against HepG2, at 10uM
# Assay type: cell-based
# Parameters: test concentration 10 uM, cell line HepG2-A16-CD81EGFP
# assay conditions: human, HepG2-A16-CD81EGFP cells; read-out: INHIBITION
experimental endpoint: cytotoxicity at 10 µM

CNS(=O)(=O)c1cccc(C(C)NCc2ccncc2)c1 (stereo unspecified) = -2.53%
CN1Cc2cnn(CC3CCCC3)c2C(COCC2CC2)C1 (stereo unspecified) = -1.6%
Cc1ncc(C(=O)OCC2CCN(c3ccccc3)C2)s1 (stereo unspecified) = -16%
CN(C)c1nccc(C2CCN(C(=O)CO)CC2)n1 = -23.6%
NC(=O)C1CCN(C(=O)c2cc(S(=O)(=O)N3CCCCC3)cs2)CC1 = -45.1%
Cc1ccc(C(=O)NCc2ccnc(N(C)C)c2)c(C)c1 = -11.1%
CC(=O)N1CCC(c2ccnc(Nc3cnccn3)n2)C1 (stereo unspecified) = -0.182%
CC(=O)N1[C@@H](C(=O)NCC2CC2)C[C@@H]2CN(Cc3ccco3)C[C@@H]21 = 4.22%
Cn1cc(CC(=O)N2CCOC(c3nc(C(C)(C)C)n[nH]3)C2)cn1 (stereo unspecified) = 2.4%
Cc1cc(C(=O)N2CCCC3(COCCN(CCN(C)C)C3)C2)no1 (stereo unspecified) = 3.22%
CC(CCc1ccccc1)N1CCC(C(=O)Nc2cnccn2)CC1 (stereo unspecified) = 13.2%

---

# cytotoxicity at 10 µM values compiled below
# test: Toxicity liver stage against HepG2, at 10uM
# Type: cell-based
# Parameters: test concentration 10 uM, cell line HepG2-A16-CD81EGFP
# assay conditions: human, HepG2-A16-CD81EGFP cells; read-out: INHIBITION
experimental endpoint: cytotoxicity at 10 µM

Cc1nn(C)c2nc(N(C)CCN(C)C)sc12 = 9.38%
COCCN1CCC1c1cc(N)nc(C)n1 (configuration not stated) = 7.75%
COC(=O)c1cccc(CNC(=O)CCC(F)(F)F)c1 = 11.6%
COc1ccc(-c2nnc(C(C)N3CCOCC3)o2)cc1 (configuration not stated) = -10.4%
Nc1nc2c(c(NC(=O)Nc3cccc(Cl)c3)n1)CCCC2 = -2.8%
O=C(Nc1cccc(F)c1)N1CCN(Cc2noc(C3CC3)n2)CC1 = 3.8%
O=C(C1CC1)N1CCCN(c2ncnc3c2CCNCC3)CC1 = 5.52%
COCCCN1CCC(N(Cc2noc(C)n2)C(C)=O)C1 (configuration not stated) = -4.22%
CCc1n[nH]c(C2CN(Cc3csc(C4CCCC4)n3)CCO2)n1 (configuration not stated) = -14.6%
CN(C)c1ccc(C(=O)NCC2(O)CCOCC2)cc1 = -3.34%
Cc1nc(O)cc(CN2C[C@H](NC(=O)C3CCCC3)[C@@H](C3CC3)C2)n1 = -4.7%
Cn1cc(CN2CCCC3(CCN(c4cccnc4)C3=O)C2)cn1 (configuration not stated) = -74.9%

---

# test: Toxicity liver stage against HepG2, at 10uM
# Type: cell-based
# Design: test concentration 10 uM, cell line HepG2-A16-CD81EGFP
# assay conditions: human, HepG2-A16-CD81EGFP cells; read-out: INHIBITION
experimental endpoint: cytotoxicity at 10 µM

Cc1ncc(-c2nc3cc(S(=O)(=O)N4CCCC4)ccc3n2C)cn1 = -21%
CN(Cc1ccsc1)C(=O)c1ccc2c(c1)NC(=O)CO2 = -12.8%
O=C(C1CCC1)N1CCOc2cccc(F)c21 = 0.877%
COc1ccc(CNC(=O)NCc2ccc(C(N)=O)cc2)cn1 = -2.94%
Cc1cccc(COC[C@@]23CCC[C@@H]2CN(S(=O)(=O)N(C)C)C3)n1 = -6.87%
CC(C)NC(=O)CNC(=O)N1CCc2c([nH]c3ccc(Cl)cc23)C1 = 7.15%

---

# test: Toxicity liver stage against HepG2, at 10uM
# Assay type: cell-based
# Design: test concentration 10 uM, cell line HepG2-A16-CD81EGFP
# assay conditions: human, HepG2-A16-CD81EGFP cells; read-out: INHIBITION
# cytotoxicity at 10 µM values compiled below
experimental endpoint: cytotoxicity at 10 µM (%)

NS(=O)(=O)c1cnn(CC(=O)Nc2c(Cl)cccc2Cl)c1 = -7.2
Cc1ccc(CN(CCCn2ccnc2)Cc2ccccc2O)s1 = -14.6
Cc1ccc(S(=O)(=O)N2CCC3(CC(C(=O)NCC(C)C)=NO3)C2)cc1 (configuration not stated) = -0.819
O=C(c1ccc(F)c(F)c1)N1CCN2CCCC2C1 (configuration not stated) = -7.09
CC(C)(C)c1n[nH]c(C2CN(Cc3nnc(C4CC4)o3)CCO2)n1 (configuration not stated) = -6.55
Cn1nccc1NC(=O)CN1CCc2sccc2C1 = 1.09
Cn1cnc(C(=O)N2CC3(CCN(S(=O)(=O)c4ccccc4)C3)C2)c1 = 3.8
O=C(O)c1ccccc1-c1cnc(CNC(=O)C2CCOCC2)nc1 = -3.99
CC1CCCCN1C(=O)c1ccn(COc2ccc(F)cc2)n1 (configuration not stated) = 4.7
OCCCNc1nc(O)c2c(n1)-c1ccccc1CC21CCCCC1 = 11.1
CN(CC(=O)N1CCCN(Cc2cscn2)CC1)c1cnccn1 = -7.81
COc1ccccc1CNC(=O)N1CCCC(CO)C1 (configuration not stated) = 0.91
